assay: self-splicing fitness, log relative to wild type (ln ratio); higher = more splicing; Tetrahymena group I intron in knt gene, E. coli kanamycin selection, DiMSum; sequences stand for … in CUCUCU…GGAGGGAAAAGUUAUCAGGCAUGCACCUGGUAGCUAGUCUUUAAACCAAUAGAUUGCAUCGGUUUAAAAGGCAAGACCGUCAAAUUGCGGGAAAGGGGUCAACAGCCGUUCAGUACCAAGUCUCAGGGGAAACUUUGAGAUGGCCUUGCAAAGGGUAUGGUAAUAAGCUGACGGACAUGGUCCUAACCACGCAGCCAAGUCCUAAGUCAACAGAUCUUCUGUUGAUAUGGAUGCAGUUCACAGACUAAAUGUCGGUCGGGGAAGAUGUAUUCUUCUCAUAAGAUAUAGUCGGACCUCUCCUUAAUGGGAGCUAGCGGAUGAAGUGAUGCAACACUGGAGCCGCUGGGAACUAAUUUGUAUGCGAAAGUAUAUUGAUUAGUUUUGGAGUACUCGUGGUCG; details: 37 °C;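 further: selection with 25 µg/mL kanamycin versus none on LB agar overnight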
Here the recorded self-splicing fitness (ln) is given for each entry.
I only need the number, thanks.

UACCAGCAAUAUUACGGCGU :: -0.341
UAGCAGCAAUAUUACGAUUG :: -0.509
CCAGAGCAAUAUUACGGAUA :: -1.91
ACACAGCAAUAUUACGCGCG :: 0.0666
AGAUAGCAAUAUUACGAAUC :: -1.06
CGUGAGCAAUAUUACGUCAG :: -0.364
AUAAAGCAAUAUUACGGGGA :: -1.4
CGGCAGCAAUAUUACGGGGG :: -1.86

Using the record for CUCAAGCAAUAUUACGGGCG , state its measured self-splicing fitness (ln).
-1.34

Using the record for CUGUAGCAAUAUUACGCAUU , state its measured self-splicing fitness (ln).
-3.28

Using the record for CGAUAGCAAUAUUACGAACG , state its measured self-splicing fitness (ln).
0.0703

Using the record for GCACAGCAAUAUUACGACUC , state its measured self-splicing fitness (ln).
0.76

Using the record for CUUAAGCAAUAUUACGGCGC , state its measured self-splicing fitness (ln).
-2.7

Using the record for AUGUAGCAAUAUUACGGAUC , state its measured self-splicing fitness (ln).
-1.61

Using the record for GACUAGCAAUAUUACGCAAC , state its measured self-splicing fitness (ln).
-1.54

Using the record for CCGAAGCAAUAUUACGUGAU , state its measured self-splicing fitness (ln).
-2.84

The reported measurements were obtained from the supplement of paper PMC7877785.
